Biological target: Toll-like receptor 9 (Homo sapiens)
Sequence (Q9NR96 whole entry): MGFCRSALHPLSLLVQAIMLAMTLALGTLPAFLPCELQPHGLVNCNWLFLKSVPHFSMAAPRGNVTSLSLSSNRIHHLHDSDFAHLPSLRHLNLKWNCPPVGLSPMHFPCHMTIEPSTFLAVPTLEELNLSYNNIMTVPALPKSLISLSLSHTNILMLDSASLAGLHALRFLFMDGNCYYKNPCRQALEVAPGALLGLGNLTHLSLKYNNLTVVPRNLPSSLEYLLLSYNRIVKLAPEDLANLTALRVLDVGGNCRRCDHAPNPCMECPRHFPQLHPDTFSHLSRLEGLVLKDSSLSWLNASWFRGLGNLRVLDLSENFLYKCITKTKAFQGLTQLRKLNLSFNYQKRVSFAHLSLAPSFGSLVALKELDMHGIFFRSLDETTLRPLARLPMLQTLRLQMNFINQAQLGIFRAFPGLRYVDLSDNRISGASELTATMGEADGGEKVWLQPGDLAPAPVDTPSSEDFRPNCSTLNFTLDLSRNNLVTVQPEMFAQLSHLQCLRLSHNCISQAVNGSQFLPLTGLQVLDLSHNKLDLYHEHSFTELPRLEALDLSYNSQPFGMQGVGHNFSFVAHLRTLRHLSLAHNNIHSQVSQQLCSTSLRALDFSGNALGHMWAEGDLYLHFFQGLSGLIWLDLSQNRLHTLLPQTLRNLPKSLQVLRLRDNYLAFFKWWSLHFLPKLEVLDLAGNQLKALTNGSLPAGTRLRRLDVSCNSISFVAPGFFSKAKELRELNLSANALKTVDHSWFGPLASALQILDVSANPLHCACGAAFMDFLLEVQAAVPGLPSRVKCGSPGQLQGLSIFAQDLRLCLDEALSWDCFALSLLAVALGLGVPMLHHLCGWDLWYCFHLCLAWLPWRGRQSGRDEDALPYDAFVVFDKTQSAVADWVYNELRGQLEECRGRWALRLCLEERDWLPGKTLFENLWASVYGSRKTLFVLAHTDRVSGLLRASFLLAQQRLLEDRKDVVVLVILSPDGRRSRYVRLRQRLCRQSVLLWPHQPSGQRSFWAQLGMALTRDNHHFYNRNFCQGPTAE
Experiment: Antagonist activity at human TLR9 expressed in HEK-blue hTLR9 cells assessed as inhibition of CpGB-induced NFkappaB activation preincubated with compound for 1 hrs followed by CpGB addition and measured next day by SEAP-based spectrophotometry assay
Type: cell-based
pIC50: −log10 of the molar value.
Given measured pIC50, output yes (1) if it is greater than or equal to 7 and no (0) if not.

COc1ccc(-c2cn3ccc(N4CCN(C5CCCC5)CC4)cc3n2)c(OC)c1 = yes (1)
COc1ccc(-c2nc3cc(N4CCN(C(C)C)CC4)ccn3c2CN2CCOCC2)c(OC)c1 = yes (1)

Query: Record `COc1ccc(-c2cn3ccc(N4CCN(C5CCCC5)CC4)cc3n2)c(O)c1` ; criterion: pIC50 no lower than 7. Met?
Response: no (0)

This collection of values is drawn from ChEMBL document CHEMBL5126608.
